Recorded values, source ChEMBL document CHEMBL1817572.

biological target: Vasopressin V2 receptor (Homo sapiens, UniProt P30518); assay: Agonist activity at recombinant human vasopressin V2 receptor expressed in HEK293 cells by luciferase reporter gene assay; format: functional, cell-based; conditions: read-out: EC50
Sequence (P30518 whole entry): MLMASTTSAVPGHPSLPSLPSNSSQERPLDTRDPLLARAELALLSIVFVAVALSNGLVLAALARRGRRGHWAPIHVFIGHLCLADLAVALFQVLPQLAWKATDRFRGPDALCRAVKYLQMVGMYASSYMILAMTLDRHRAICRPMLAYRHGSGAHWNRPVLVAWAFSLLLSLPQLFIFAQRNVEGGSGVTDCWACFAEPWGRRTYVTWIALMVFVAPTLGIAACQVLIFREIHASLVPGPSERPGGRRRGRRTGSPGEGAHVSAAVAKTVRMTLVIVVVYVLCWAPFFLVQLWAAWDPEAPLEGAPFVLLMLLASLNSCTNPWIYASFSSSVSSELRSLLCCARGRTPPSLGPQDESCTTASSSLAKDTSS
Bridge positions count the residues as written; N and C are the ends. Square brackets hold non-standard residues; d marks the D form. Peptide text beside a SMILES is read from it. * marks the point of attachment. Orn = NCCC[C@H](N)C(=O)O; NHiBu = CC(C)CN*
Each entry below lists one item and its recorded EC50 value.
Unit µM implied. Number only.

>>> reading("CC[C@H](C)[C@@H]1NC(=O)[C@H](Cc2ccccc2)NC(=O)[C@@H](N)CSSC[C@@H](C(=O)N2CCC[C@H]2C(=O)N[C@@H](CCCN)C(=O)NCC(N)=O)NC(=O)[C@H](CC(N)=O)NC(=O)[C@H](CCC(=O)NCC(C)C)NC1=O (H-CFIE(NHiBu)NCP[Orn]G-NH2; disulfide 1-6)")
3

Then this molecule:
Query block: Given the molecule CCNC(=O)CC[C@@H]1NC(=O)[C@H]([C@@H](C)CC)NC(=O)[C@H](Cc2ccccc2)NC(=O)[C@@H](N)CSSC[C@@H](C(=O)N2CCC[C@H]2C(=O)N[C@@H](CCCN)C(=O)NCC(N)=O)NC(=O)[C@H](CC(N)=O)NC1=O (H-CFIE(NHEt)NCP[Orn]G-NH2; disulfide 1-6) , what is its reported EC50?
Result block: 2.6

---

molecular target: Vasopressin V1a receptor (Rattus norvegicus); assay: Agonist activity at recombinant rat vasopressin V1a receptor expressed in HEK293 cells by luciferase reporter gene assay; type: functional, cell-based; conditions: read-out: EC50
Sequence (P30560 whole entry): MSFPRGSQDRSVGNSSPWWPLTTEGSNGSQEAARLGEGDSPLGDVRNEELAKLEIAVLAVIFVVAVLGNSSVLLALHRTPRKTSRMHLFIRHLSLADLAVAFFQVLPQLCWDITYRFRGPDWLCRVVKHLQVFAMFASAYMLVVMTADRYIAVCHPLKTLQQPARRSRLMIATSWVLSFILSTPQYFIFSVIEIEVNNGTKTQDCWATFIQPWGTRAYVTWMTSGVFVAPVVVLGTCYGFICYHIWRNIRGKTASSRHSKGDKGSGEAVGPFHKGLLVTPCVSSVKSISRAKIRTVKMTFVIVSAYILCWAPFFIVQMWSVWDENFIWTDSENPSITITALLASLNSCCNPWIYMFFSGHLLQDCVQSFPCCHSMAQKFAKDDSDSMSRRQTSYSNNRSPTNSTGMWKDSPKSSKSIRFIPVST
Bridge positions count the residues as written; N and C are the ends. Square brackets hold non-standard residues; d marks the D form. Peptide text beside a SMILES is read from it. Ala(cPent) = N[C@@H](CC1CCCC1)C(=O)O; Dab = NCC[C@H](N)C(=O)O
Each entry below lists one item and its recorded EC50 value.
Unit nM implied. Number only.

>>> reading("N=C(N)NCCC[C@H](NC(=O)[C@@H]1CCCN1C(=O)[C@@H]1CSSC[C@H](N)C(=O)N[C@@H](Cc2ccccc2)C(=O)N[C@@H](Cc2ccccc2)C(=O)N[C@@H](CCC(N)=O)C(=O)N[C@@H](CC(N)=O)C(=O)N1)C(=O)NCC(N)=O (H-CFFQNCPRG-NH2; disulfide 1-6)")
0.07

Then this compound:
Query block: Given the compound CC[C@H](C)[C@@H]1NC(=O)[C@H](CC2CCCC2)NC(=O)[C@@H](N)CSSC[C@@H](C(=O)N2CCC[C@H]2C(=O)N[C@@H](CCN)C(=O)NCC(N)=O)NC(=O)[C@H](CC(N)=O)NC(=O)[C@H](CCC(N)=O)NC1=O (H-C[Ala(cPent)]IQNCP[Dab]G-NH2; disulfide 1-6) , what is its reported EC50?
Result block: 4.2

---

Each entry below lists one item and its recorded EC50 value.
target: Vasopressin V1a receptor (Rattus norvegicus); assay: Agonist activity at recombinant rat vasopressin V1a receptor expressed in HEK293 cells by luciferase reporter gene assay; assay type: functional, cell-based; settings: read-out: EC50
Bridge positions count the residues as written; N and C are the ends. Square brackets hold non-standard residues; d marks the D form. Peptide text beside a SMILES is read from it. Orn(iPr) = CC(C)NCCC[C@H](N)C(=O)O; Orn = NCCC[C@H](N)C(=O)O; Dab = NCC[C@H](N)C(=O)O
Unit nM implied. Number only.

Before answering, review these 2 worked examples.
>>> reading("CC[C@H](C)[C@@H]1NC(=O)[C@H](Cc2ccccc2)NC(=O)[C@@H](N)CSSC[C@@H](C(=O)N2CCC[C@H]2C(=O)N[C@@H](CCCNC(C)C)C(=O)NCC(N)=O)NC(=O)[C@H](CC(N)=O)NC(=O)[C@H](CCC(N)=O)NC1=O (H-CFIQNCP[Orn(iPr)]G-NH2; disulfide 1-6)")
0.13
>>> reading("CCNC(=O)C[C@@H]1NC(=O)[C@H]([C@@H](C)CC)NC(=O)[C@H](Cc2ccccc2)NC(=O)[C@@H](N)CSSC[C@@H](C(=O)N2CCC[C@H]2C(=O)N[C@@H](CCN)C(=O)NCC(N)=O)NC(=O)[C@H](CC(N)=O)NC1=O (H-CFID(NHEt)NCP[Dab]G-NH2; disulfide 1-6)")
4.8

Then this molecule:
Query block: Find the measured EC50: item CC[C@H](C)[C@@H]1NC(=O)[C@H](Cc2ccccc2)NC(=O)[C@@H](N)CSSC[C@@H](C(=O)N2CCC[C@H]2C(=O)N[C@@H](CCCN)C(=O)NCC(N)=O)NC(=O)[C@H](CC(N)=O)NC(=O)[C@H](CCC(N)=O)NC1=O (H-CFIQNCP[Orn]G-NH2; disulfide 1-6) , target or system Vasopressin V1a receptor (Rattus norvegicus).
Result block: 0.12

---

molecular target: Oxytocin receptor (Homo sapiens); test: Agonist activity at human OT receptor expressed in CHO-K1 cells by luciferase reporter gene assay; format: functional, cell-based; conditions: read-out: EC50
Sequence (P30559 whole entry): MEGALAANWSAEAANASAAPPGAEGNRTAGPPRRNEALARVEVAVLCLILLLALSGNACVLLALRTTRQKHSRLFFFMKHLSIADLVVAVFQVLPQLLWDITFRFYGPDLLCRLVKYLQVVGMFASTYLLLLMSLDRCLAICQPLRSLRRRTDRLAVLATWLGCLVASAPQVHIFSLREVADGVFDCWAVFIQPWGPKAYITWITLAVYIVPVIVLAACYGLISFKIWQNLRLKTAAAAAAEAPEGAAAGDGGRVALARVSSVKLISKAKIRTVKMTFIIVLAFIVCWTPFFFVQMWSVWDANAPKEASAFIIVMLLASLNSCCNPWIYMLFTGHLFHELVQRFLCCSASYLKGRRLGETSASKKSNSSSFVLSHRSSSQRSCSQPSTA
Bridge positions count the residues as written; N and C are the ends. Square brackets hold non-standard residues; d marks the D form. Peptide text beside a SMILES is read from it. Ala(4-thiazolyl) = N[C@@H](Cc1cscn1)C(=O)O; Dab = NCC[C@H](N)C(=O)O
experimental_readout: EC50 (nM)
Unit nM implied. Number only.

Query block: Given the compound CC[C@H](C)[C@@H]1NC(=O)[C@H](Cc2cscn2)NC(=O)[C@@H](N)CSSC[C@@H](C(=O)N2CCC[C@H]2C(=O)N[C@@H](CCN)C(=O)NCC(N)=O)NC(=O)[C@H](CC(N)=O)NC(=O)[C@H](CCC(N)=O)NC1=O (H-C[Ala(4-thiazolyl)]IQNCP[Dab]G-NH2; disulfide 1-6) , what is its reported EC50?
Result block: 1200

---

target: Vasopressin V1b receptor (Homo sapiens); experiment: Agonist activity at recombinant human vasopressin V1b receptor expressed in Flp-In-293 cells by luciferase reporter gene assay; assay type: functional, cell-based; conditions: read-out: EC50
Sequence (P47901 whole entry): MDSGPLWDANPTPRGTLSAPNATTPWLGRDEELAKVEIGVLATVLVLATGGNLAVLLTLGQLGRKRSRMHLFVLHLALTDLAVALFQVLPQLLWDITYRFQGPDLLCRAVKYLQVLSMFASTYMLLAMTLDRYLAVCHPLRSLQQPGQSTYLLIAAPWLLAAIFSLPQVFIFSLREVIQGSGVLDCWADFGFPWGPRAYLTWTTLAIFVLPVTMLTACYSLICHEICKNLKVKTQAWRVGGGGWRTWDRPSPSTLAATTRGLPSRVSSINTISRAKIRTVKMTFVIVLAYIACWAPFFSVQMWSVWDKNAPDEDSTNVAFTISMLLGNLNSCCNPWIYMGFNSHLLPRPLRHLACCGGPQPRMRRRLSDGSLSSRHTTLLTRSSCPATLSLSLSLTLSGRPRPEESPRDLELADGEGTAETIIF
pEC50: −log10 of the molar value. Bridge positions count the residues as written; N and C are the ends. Square brackets hold non-standard residues; d marks the D form. Peptide text beside a SMILES is read from it. Ala(4-thiazolyl) = N[C@@H](Cc1cscn1)C(=O)O; 2Thi = N[C@@H](Cc1cccs1)C(=O)O; Orn = NCCC[C@H](N)C(=O)O; Dab = NCC[C@H](N)C(=O)O
experimental_readout: pEC50

>>> reading("CC[C@H](C)[C@@H]1NC(=O)[C@H](Cc2cccs2)NC(=O)[C@@H](N)CSSC[C@@H](C(=O)N2CCC[C@H]2C(=O)N[C@@H](CCN)C(=O)NCC(N)=O)NC(=O)[C@H](CC(N)=O)NC(=O)[C@H](CCC(N)=O)NC1=O (H-C[2Thi]IQNCP[Dab]G-NH2; disulfide 1-6)")
6.82
>>> reading("CC[C@H](C)[C@@H]1NC(=O)[C@H](Cc2cscn2)NC(=O)[C@@H](N)CSSC[C@@H](C(=O)N2CCC[C@H]2C(=O)N[C@@H](CCN)C(=O)NCC(N)=O)NC(=O)[C@H](CC(N)=O)NC(=O)[C@H](CCC(N)=O)NC1=O (H-C[Ala(4-thiazolyl)]IQNCP[Dab]G-NH2; disulfide 1-6)")
6.37
>>> reading("CC[C@H](C)[C@@H]1NC(=O)[C@H](Cc2cccs2)NC(=O)[C@@H](N)CSSC[C@@H](C(=O)N2CCC[C@H]2C(=O)N[C@@H](CCCN)C(=O)NCC(N)=O)NC(=O)[C@H](CC(N)=O)NC(=O)[C@H](CC(N)=O)NC1=O (H-C[2Thi]INNCP[Orn]G-NH2; disulfide 1-6)")
6.66

---

target: Vasopressin V1a receptor (Homo sapiens); assay: Agonist activity at recombinant human vasopressin V1a receptor expressed in HEK293 cells by luciferase reporter gene assay; assay type: functional, cell-based; conditions: read-out: EC50
Sequence (P37288 whole entry): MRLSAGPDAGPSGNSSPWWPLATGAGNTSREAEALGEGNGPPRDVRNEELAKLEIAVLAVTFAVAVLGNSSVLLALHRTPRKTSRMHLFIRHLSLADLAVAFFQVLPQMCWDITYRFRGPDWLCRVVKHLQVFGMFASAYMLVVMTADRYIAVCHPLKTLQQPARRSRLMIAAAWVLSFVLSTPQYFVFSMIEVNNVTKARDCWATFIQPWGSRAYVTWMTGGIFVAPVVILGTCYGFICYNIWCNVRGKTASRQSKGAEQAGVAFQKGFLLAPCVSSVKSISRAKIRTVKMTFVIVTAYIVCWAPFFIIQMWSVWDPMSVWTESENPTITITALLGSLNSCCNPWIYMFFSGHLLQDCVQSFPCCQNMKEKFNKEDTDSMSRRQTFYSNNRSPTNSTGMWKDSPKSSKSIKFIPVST
Numbered stars: 1 amine (or outer) side, 2 acyl side, 3 side chain; on linkers, the order of the positions; unused ones are H or OH. Bridge positions count the residues as written; N and C are the ends. Square brackets hold non-standard residues; d marks the D form. Peptide text beside a SMILES is read from it. Orn(Me) = CN(CCC[C@H](N[*:1])C(=O)[*:2])[*:3]; X4 = CONC(=O)CC[C@H](N[*:1])C(=O)[*:2]; Orn(iPr) = CC(C)NCCC[C@H](N)C(=O)O; Orn(Pr) = CCCNCCC[C@H](N)C(=O)O; Cha = N[C@@H](CC1CCCCC1)C(=O)O; Orn = NCCC[C@H](N)C(=O)O; Dap = NC[C@H](N)C(=O)O
Each entry below lists one item and its recorded pEC50 value.
Scale: pEC50 equals -log10([C]), with [C] in mol/L.

Before answering, review these 6 worked examples.
>>> reading("CC[C@H](C)[C@@H]1NC(=O)[C@H](Cc2ccccc2)NC(=O)[C@@H](N)CSSC[C@@H](C(=O)N2CCC[C@H]2C(=O)N[C@@H](CCCN)C(=O)NCC(N)=O)NC(=O)[C@H](CC(N)=O)NC(=O)[C@H](CC(=O)NC)NC1=O (H-CFID(NHMe)NCP[Orn]G-NH2; disulfide 1-6)")
8.44
>>> reading("CC[C@H](C)[C@@H]1NC(=O)[C@H](Cc2ccccc2)NC(=O)[C@@H](N)CSSC[C@@H](C(=O)N2CCC[C@H]2C(=O)N[C@@H](CN)C(=O)NCC(N)=O)NC(=O)[C@H](CC(N)=O)NC(=O)[C@H](CCC(N)=O)NC1=O (H-CFIQNCP[Dap]G-NH2; disulfide 1-6)")
7.52
>>> reading("CC[C@H](C)[C@@H]1NC(=O)[C@H](Cc2ccccc2)NC(=O)[C@@H](N)CSSC[C@@H](C(=O)N2CCC[C@H]2C(=O)N[C@@H](CCCNC)C(=O)NCC(N)=O)NC(=O)[C@H](CC(N)=O)NC(=O)[C@H](CCC(N)=O)NC1=O (H-CFIQNCP[Orn(Me)]G-NH2; disulfide 1-6)")
9.59
>>> reading("CC[C@H](C)[C@@H]1NC(=O)[C@H](Cc2ccccc2)NC(=O)[C@@H](N)CSSC[C@@H](C(=O)N2CCC[C@H]2C(=O)N[C@@H](CCCN)C(=O)NCC(N)=O)NC(=O)[C@H](CC(N)=O)NC(=O)[C@H](CCC(=O)NOC)NC1=O (H-CFI[X4]NCP[Orn]G-NH2; disulfide 1-6)")
8.96
>>> reading("CC[C@H](C)[C@@H]1NC(=O)[C@H](CC2CCCCC2)NC(=O)[C@@H](N)CSSC[C@@H](C(=O)N2CCC[C@H]2C(=O)N[C@@H](CCCNC(C)C)C(=O)NCC(N)=O)NC(=O)[C@H](CC(N)=O)NC(=O)[C@H](CC(N)=O)NC1=O (H-C[Cha]INNCP[Orn(iPr)]G-NH2; disulfide 1-6)")
8.85
>>> reading("N=C(N)NCCC[C@H](NC(=O)[C@@H]1CCCN1C(=O)[C@@H]1CSSC[C@H](N)C(=O)N[C@@H](Cc2ccccc2)C(=O)N[C@@H](Cc2ccccc2)C(=O)N[C@@H](CCC(N)=O)C(=O)N[C@@H](CC(N)=O)C(=O)N1)C(=O)NCC(N)=O (H-CFFQNCPRG-NH2; disulfide 1-6)")
9.82

Then this compound:
Query block: Find the measured pEC50: item CCCNCCC[C@H](NC(=O)[C@@H]1CCCN1C(=O)[C@@H]1CSSC[C@H](N)C(=O)N[C@@H](Cc2ccccc2)C(=O)N[C@@H]([C@@H](C)CC)C(=O)N[C@@H](CC(N)=O)C(=O)N[C@@H](CC(N)=O)C(=O)N1)C(=O)NCC(N)=O (H-CFINNCP[Orn(Pr)]G-NH2; disulfide 1-6) , target or system Vasopressin V1a receptor (Homo sapiens).
Result block: 8.82
